The origin of these recorded values is patent US20210230254A1.

# subject of test: T1, YU-2 gp140 (HIV-1 YU2, UniProt P35961 32-670)
# T1 construct: domain: gp140; also called YU2 gp140 trimer
# assay details: SPR, gp140 on chip, IgG injected
test readout: koff (s⁻¹)

{"columns": ["binder", "recorded number"],
 "data": [
  ["12A21 (antibody, V domains shown, also called 12A21HC; 12a21kc) VH: SQHLVQSGTQVKKPGASVRVSCQASGYTFTNYILHWWRQAPGQGLEWMGLIKPVFGAVNYARQFQGRIQLTRDIYREIAFLDLSGLRSDDTAVYYCARDESGDDLKWHLHPWGQGTQVIVSP VL: DIQMTQSPSSLSASVGDRVTINCQAGQGIGSSLNWYQKKPGRAPKLLVHGASNLQRGVPSRFSGSGFHTTFTLTISSLQPDDVATYFCAVFQWFGPGTKVDIKR", "3.44e-07"],
  ["1B2530 (antibody, V domains shown, also called LSSB2530HC; LSSB2530LC) VH: QVRLEQSGAAMRKPGASVTLSCQASGYNFVKYIIHWVRQKPGLGFEWVGMIDPYRGRPWSAHKFQGRLSLSRDTSMEILYMTLTSLKSDDTATYFCARAEAASDSHSRPIMFDHWGQGSRVTVSS VL: QSALTQPPSASGAPGQRVTISCSGGPSNVGGNYVYWYRQFPGTAPTLLILRDDQRPSGVPDRFSASKSGNSASLAISGLRPDDEGFYFCATYDSDGSIRLFGGGTALTVLS", 0.00162],
  ["3BNC60 (antibody, V domains shown, also called 3BNC60HC; 3BNC60KC) VH: QVHLSQSGAAVTKPGASVRVSCEASGYKISDHFIHWWRQAPGQGLQWVGWINPKTGQPNNPRQFQGRVSLTRQASWDFDTYSFYMDLKAVRSDDTAIYFCARQRSDFWDFDVWGSGTQVTVSSASTKG VL: DIQMTQSPSSLSARVGDTVTITCQANGYLNWYQQRRGKAPKLLIYDGSKLERGVPARFSGRRWGQEYNLTINNLQPEDVATYFCQVYEFIVPGTRLDLKRTVAA", 0.000186]
]}
